- assayed.system: wild-type CFTR (Homo sapiens, UniProt P13569)
- Sequence (P13569 whole entry): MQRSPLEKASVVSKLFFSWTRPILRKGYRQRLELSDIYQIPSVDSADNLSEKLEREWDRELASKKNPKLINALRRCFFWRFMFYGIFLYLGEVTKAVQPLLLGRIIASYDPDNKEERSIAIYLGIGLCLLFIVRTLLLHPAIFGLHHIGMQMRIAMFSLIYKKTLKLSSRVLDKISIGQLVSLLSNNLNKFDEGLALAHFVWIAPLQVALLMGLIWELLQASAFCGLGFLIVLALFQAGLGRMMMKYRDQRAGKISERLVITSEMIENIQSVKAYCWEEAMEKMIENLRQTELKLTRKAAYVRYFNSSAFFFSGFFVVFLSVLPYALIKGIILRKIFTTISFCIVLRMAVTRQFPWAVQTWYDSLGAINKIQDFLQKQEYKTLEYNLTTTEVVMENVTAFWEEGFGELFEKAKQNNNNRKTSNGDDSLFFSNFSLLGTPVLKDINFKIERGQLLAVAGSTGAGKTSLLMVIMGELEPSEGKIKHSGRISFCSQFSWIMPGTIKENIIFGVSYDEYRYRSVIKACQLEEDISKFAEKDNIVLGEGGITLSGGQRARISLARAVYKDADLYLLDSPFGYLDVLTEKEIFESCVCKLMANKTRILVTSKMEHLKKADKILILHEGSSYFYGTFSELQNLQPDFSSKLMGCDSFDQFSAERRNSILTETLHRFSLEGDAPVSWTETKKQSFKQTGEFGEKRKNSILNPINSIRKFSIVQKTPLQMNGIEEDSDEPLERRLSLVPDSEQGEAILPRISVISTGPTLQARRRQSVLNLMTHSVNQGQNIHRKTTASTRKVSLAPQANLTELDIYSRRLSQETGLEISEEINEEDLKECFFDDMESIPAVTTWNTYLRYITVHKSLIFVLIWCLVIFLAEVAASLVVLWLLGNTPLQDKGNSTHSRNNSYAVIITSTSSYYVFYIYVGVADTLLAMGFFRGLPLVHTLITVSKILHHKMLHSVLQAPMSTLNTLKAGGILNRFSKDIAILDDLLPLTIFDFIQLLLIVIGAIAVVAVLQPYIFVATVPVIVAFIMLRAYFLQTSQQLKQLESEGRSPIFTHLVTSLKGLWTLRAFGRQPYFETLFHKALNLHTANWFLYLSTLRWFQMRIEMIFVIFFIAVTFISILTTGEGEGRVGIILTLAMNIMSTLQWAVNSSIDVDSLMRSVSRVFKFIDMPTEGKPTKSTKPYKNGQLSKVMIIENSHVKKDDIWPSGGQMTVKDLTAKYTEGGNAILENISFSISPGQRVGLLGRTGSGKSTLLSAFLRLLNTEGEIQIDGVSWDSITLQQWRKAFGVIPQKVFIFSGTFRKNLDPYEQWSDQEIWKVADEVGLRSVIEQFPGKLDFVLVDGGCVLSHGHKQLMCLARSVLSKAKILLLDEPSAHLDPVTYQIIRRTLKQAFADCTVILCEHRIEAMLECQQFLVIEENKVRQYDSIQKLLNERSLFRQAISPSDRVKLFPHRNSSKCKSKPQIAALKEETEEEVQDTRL
- assay.info: cell-based plate reader assay of CFTR function
- condition.label: commercially available analogs of 1, Supporting Information Table 1
observation.type: CFTR activation potency of commercial analogs, SAR summary in words

Examples with answers:
molecule: FC(F)(F)COc1nc(Nc2ccc(OC(F)(F)F)cc2)nc(NC2CC2)n1
result: reduced activity

molecule: CCN(CC)c1nc(Nc2ccccc2)nc(OC(C(F)(F)F)C(F)(F)F)n1
result: best potency

molecule: CCC(C)Nc1nc(Nc2ccc([N+](=O)[O-])cc2)nc(OC(C(F)(F)F)C(F)(F)F)n1 (centres unmarked)
result: reduced potency

molecule: CNc1nc(Nc2ccc(C(C)=O)cc2)nc(OC(C(F)(F)F)C(F)(F)F)n1
result: reduced activity

molecule: CC(C)(C)Nc1nc(Nc2ccc(OC(F)(F)Cl)cc2)nc(OCC(F)(F)F)n1
result: reduced potency

Record CFTR activation potency of commercial analogs, SAR summary in words for all entries; do not skip any.
1. CNc1nc(Nc2ccc([N+](=O)[O-])cc2)nc(OCC(F)(F)C(F)F)n1
2. C=CCNc1nc(Nc2cccc([N+](=O)[O-])c2)nc(OC(C(F)(F)F)C(F)(F)F)n1

**A:**
1. best potency
2. best potency

---

- assayed.system: wild-type CFTR (Homo sapiens, UniProt P13569)
- assay.info: cell-based plate reader assay of CFTR function
- condition.label: Charts 1-3
observation.type: CFTR activation potency of synthesized analogs, comparison in words

smiles.structure: CCN(CC)c1nc(Nc2ccc3[nH]ncc3c2)nc(OC(C(F)(F)F)C(F)(F)F)n1
assayed.system: wild-type CFTR (Homo sapiens, UniProt P13569)
result: less potent than 1

smiles.structure: CCN(CC)c1nc(Nc2ccc3cn[nH]c3c2)nc(OC(C(F)(F)F)C(F)(F)F)n1
assayed.system: wild-type CFTR (Homo sapiens, UniProt P13569)
result: less potent than 1
